Experiment: Luminescence activity assay of purified Gaussia luciferase mutants on coelenterazine
Format: biochemical
Parameters: key: ratio of mutant luminescence intensity to wild-type Gaussia luciferase
Conditions: Substrate CTZ (Table 16)
Reported Property: Activity of mutant relative to wild-type Gaussia luciferase without the signal peptide
Reply: number alone, nothing else.

Given F26D N27H V29K A30G A32G S33L T37L L40R: Gaussia luciferase mutant (protein, SIGNAL (1)..(17), Gaussia luciferase mutant) MGVKVLFALICIAVAEAKPTENNEDDHIKGVGLNFALTDRDADRGKLPGKKLPLEVLKEMEANARKAGCTRGCLICLSHIKCTPKMKKFIPGRCHTYEGDKESAQGGIGEAIVDIPEIPGFKDLEPMEQFIAQVDLCVDCTTGCLKGLANVQCSDLLKKWLPQRCATFASKIQGQVDKIKGAGGD , state its recorded Activity of mutant relative to wild-type Gaussia luciferase without the signal peptide.
0.037

Reference for the values: patent US20250066745A1
